Entries and their Bound (nm)
TARGET_SYSTEM: T1, irrelevant human Fc tagged protein
T1 construct: negative control antigen; also called Irrelevant hFc tagged protein
PROTOCOL_DESCRIPTION: BLI Octet, antigen on anti-hFc tips, 100 ug/mL Ab
Method: The ability of anti-GFRα3 antibodies to bind to GDNF-family receptors was assessed using an Octet Red biosensor (Fortebio, Inc.). […] The binding response (measured in units of nm) at each step of the experiment was monitored and recorded.
Numbers only; they are read as nm.

Recorded results for 2 binders are shown here.
BINDER	RESULT_UNIT	Bound (nm)
H4H2342P (antibody, human IgG4, V domains shown, human IgG4 Fc (H4H)) VH: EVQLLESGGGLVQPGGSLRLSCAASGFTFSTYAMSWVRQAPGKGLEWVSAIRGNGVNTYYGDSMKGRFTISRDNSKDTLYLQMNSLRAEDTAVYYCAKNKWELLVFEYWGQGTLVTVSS VL: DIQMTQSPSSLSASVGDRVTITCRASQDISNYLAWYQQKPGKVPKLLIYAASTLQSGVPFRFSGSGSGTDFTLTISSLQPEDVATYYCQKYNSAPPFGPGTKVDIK	nm	0.07
H4H2292S (antibody, human IgG4, V domains shown, human IgG4 Fc (H4H)) VH: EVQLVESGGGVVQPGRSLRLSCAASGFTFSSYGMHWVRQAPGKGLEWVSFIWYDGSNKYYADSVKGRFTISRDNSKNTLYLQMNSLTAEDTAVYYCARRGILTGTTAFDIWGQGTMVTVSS VL: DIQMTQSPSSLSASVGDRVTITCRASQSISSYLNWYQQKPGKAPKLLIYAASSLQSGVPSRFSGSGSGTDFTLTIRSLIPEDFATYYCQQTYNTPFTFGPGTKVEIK	nm	0.02

Look up Bound (nm): H4H2352S (antibody, human IgG4, V domains shown, human IgG4 Fc (H4H); also called H4H2352S-1) VH: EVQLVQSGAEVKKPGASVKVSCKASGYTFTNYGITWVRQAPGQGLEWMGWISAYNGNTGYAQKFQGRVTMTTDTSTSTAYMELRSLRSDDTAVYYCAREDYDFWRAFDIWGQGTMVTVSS VL: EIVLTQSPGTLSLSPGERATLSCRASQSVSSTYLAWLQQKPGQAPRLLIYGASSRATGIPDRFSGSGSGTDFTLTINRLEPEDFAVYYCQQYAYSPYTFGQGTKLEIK
0.03

Look up Bound (nm): H4H2243N2 (antibody, human IgG4, V domains shown, human IgG4 Fc (H4H)) VH: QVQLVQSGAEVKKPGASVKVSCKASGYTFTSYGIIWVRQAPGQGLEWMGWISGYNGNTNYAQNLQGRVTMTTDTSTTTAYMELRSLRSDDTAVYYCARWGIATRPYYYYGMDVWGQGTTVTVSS VL: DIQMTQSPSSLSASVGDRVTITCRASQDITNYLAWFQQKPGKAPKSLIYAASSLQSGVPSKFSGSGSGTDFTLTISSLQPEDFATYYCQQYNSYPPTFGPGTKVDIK
0.03

Data credit: patent US20140056903A1
